As shown below, each of these compounds has a reported EC50 value.
# Tested on: Streptococcus sp. 'group A'
# assay protocol: growth inhibition of control SK(-) GAS strain, dose response, counter-screen for streptokinase expression inhibitor project, luminescence, kanamycin, BacTiterGlo, confirmation (AID 1900)
# Assay type: functional, organism-based
Active and inactive are the calls of the source.

Some solved cases for reference:
compound: COc1cc(/C=C/c2cc[n+](C)cc2)ccc1OCC(=O)Nc1ccc(Cl)c(Cl)c1
assayed target: Streptococcus sp. 'group A'
meas value: 12.7 µM (active)

compound: CCCc1nc2oc3c(Cl)ncnc3c2c2c1CCCC2
assayed target: Streptococcus sp. 'group A'
meas value: > 150 µM (not active)

compound: N#Cc1c(N)nc(Sc2ccc(Cl)cc2)c(C#N)c1-c1ccccc1Cl
assayed target: Streptococcus sp. 'group A'
meas value: 4.24 µM (active)

Input: Provide measured EC50 on Streptococcus sp. 'group A' for CC1CCc2c(C(=O)Nc3cccc(-c4nn[nH]n4)c3)csc2C1 (stereo not given) please.
Output: 127 µM (active)

Input: Provide measured EC50 on Streptococcus sp. 'group A' for Cc1cccc(NCc2nc3ccccc3n2Cc2ccccc2)c1 please.
Output: 8.81 µM (active)

Input: Provide measured EC50 on Streptococcus sp. 'group A' for C=C(CC1([C@@H](NP(=O)(c2ccccc2)c2ccccc2)[C@H]2C[C@@H]2CCCC)CC1)c1ccccc1 please.
Output: 2.27 µM (active)

Input: Provide measured EC50 on Streptococcus sp. 'group A' for Cc1csc(NC(=O)COCC(=O)O)c1-c1nc2ccccc2s1 please.
Output: 5.48 µM (active)

Input: Provide measured EC50 on Streptococcus sp. 'group A' for CCOC(=O)c1ccc(NC(S)=NN)cc1 please.
Output: 9.57 µM (active)

Input: Provide measured EC50 on Streptococcus sp. 'group A' for Fc1cccc2sc(Nc3nnc(-c4ccco4)o3)nc12 please.
Output: 0.632 µM (active)

Input: Provide measured EC50 on Streptococcus sp. 'group A' for Cc1cc(N2CCN(c3ccccc3Cl)CC2)n2cc(-c3ccccc3)nc2n1 please.
Output: 11.5 µM (active)

Input: Provide measured EC50 on Streptococcus sp. 'group A' for O=C(Nc1nnc(C2CCCCC2)s1)c1ccc(Br)s1 please.
Output: 6.45 µM (active)

----------
# assayed target: Nucleotide-binding oligomerization domain-containing protein 2 (Homo sapiens, UniProt Q9HC29)
# Sequence (Q9HC29 whole entry, the tested form may be a part): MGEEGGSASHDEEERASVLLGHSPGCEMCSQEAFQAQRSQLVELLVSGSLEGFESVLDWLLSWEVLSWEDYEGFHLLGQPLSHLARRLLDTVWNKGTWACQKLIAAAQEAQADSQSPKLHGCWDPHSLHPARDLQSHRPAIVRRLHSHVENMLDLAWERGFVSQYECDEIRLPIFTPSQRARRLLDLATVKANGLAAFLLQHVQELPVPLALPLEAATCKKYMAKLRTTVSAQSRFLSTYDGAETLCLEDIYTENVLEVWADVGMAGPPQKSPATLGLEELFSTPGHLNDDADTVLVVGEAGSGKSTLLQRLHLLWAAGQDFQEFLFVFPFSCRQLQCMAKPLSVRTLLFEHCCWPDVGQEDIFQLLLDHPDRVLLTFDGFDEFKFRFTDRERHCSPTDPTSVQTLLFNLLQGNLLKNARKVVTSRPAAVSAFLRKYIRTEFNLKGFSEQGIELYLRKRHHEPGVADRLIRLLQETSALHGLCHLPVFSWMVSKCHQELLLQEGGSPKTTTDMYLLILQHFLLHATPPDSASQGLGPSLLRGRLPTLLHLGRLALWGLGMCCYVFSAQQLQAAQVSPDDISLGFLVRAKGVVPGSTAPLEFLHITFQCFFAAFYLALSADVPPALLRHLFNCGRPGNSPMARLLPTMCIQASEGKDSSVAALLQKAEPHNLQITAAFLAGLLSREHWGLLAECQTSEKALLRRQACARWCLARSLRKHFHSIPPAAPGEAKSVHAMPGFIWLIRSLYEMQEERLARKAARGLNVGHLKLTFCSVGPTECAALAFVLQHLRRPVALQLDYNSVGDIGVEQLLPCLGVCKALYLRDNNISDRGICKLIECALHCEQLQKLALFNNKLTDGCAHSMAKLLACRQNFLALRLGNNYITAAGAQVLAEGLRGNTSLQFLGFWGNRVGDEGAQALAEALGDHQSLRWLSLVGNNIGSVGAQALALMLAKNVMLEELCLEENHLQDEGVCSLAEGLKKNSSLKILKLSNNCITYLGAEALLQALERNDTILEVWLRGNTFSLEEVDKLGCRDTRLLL
# assay protocol: NOD2 signaling inhibitors, cell-based, luminescence, uHTS, HEK293 (AID 1566)
# Assay type: functional
Active and inactive are the calls of the source.
Choose the fitting class; nothing outside active, inactive is accepted.

A selection of reference data follows.
compound: COc1ccccc1OCCCOc1cccc(/C=C2\SC(=O)NC2=O)c1
category: active
--
compound: COc1ccc(-c2nnc(NC(=O)c3ccc(S(=O)(=O)N4CCc5ccccc5C4)cc3)o2)cc1
category: inactive
--
compound: Cc1ccc(C(=O)NC(=C(Cl)Cl)S(=O)(=O)c2ccc(C)cc2)cc1
category: active

Input: # lookup: test call for Cc1oc(-c2ccccc2Cl)nc1CSc1nc2c(c(=O)[nH]1)CCCC2
Output: active

Input: # lookup: test call for COc1ccc(CN(C)S(=O)(=O)c2nnc(NC(=O)c3cccc(F)c3)s2)cc1
Output: active

Input: # lookup: test call for O=C(NCCc1ccccc1)C(c1cccs1)N(C(=O)CCl)c1ccc(Cl)cc1 (configuration not stated)
Output: inactive

Input: # lookup: test call for Cc1ccc(NC(=O)CSc2ncnc3ccccc23)cc1S(=O)(=O)N1CCCCC1
Output: active

----------
# assayed target: Small ubiquitin-related modifier 1 (Homo sapiens)
# Sequence (P63165 whole entry): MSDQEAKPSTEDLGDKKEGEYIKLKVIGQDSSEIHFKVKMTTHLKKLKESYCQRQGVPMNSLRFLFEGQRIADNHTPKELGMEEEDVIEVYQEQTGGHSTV
# assay protocol: inhibitors of SUMO1 partner interactions, dose response, biochemical, FRET (AID 624383)
# Assay type: functional
# experimental context: read-out: IC50_Mean
Active and inactive are the calls of the source.
Choose the fitting class; nothing outside active, inactive is accepted.

A selection of reference data follows.
compound string: O=Cc1cn(-c2ccccc2)nc1-c1cc2cc(O)ccc2oc1=O
category: active

compound string: O=C(Nc1ccc2oc(=O)ccc2c1)c1ccc(-c2ccccc2[N+](=O)[O-])o1
category: active

compound string: O=C(CSc1nc(C2CC2)nc2ccccc12)Nc1cccc(O)c1
category: inactive

Input: # lookup: test call for CCOC(=O)c1cc(-c2ccc(OC)cc2)nn1-c1ccccc1C(=O)O
Output: inactive

----------
# assayed target: DNA repair and recombination protein RAD54-like (Homo sapiens, UniProt Q92698)
# Sequence (Q92698 whole entry): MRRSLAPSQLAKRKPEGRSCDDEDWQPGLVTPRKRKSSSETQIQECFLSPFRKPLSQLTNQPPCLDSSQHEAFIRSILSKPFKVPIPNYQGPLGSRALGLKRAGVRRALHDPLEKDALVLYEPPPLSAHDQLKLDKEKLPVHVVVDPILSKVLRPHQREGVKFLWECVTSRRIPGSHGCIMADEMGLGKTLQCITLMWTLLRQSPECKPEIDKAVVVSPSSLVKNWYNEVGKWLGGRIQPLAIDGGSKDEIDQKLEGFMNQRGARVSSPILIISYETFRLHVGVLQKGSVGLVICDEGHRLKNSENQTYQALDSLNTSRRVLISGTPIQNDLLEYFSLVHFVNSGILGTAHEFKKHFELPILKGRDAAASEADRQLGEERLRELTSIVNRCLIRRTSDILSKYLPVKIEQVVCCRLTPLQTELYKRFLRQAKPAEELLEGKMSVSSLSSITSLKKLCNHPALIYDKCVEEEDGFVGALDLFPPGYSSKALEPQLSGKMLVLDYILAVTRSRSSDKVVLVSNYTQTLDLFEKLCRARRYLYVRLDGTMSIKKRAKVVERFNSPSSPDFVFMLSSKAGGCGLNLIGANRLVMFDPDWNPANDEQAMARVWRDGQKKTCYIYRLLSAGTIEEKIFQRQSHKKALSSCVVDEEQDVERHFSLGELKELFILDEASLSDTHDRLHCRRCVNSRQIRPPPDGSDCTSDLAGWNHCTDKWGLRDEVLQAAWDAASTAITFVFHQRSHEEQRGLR
# assay protocol: inhibitors of human RAD54 branch migration, confirmation, biochemical, fluorescence, cherry-picked samples, dose series (AID 651657)
# Type: functional
Calls of active or inactive are those of the source.
property label: AC50

Input: Quick one: give measured AC50 for CCN(CC)CCCNC(=O)C1CCN(c2ncnc3c2sc2cccc(F)c23)CC1
Output: 52 µM (active)

Input: Quick one: give measured AC50 for CCN1CCc2c(sc(NC(=O)c3ccc(C(=O)c4ccccc4)cc3)c2C(N)=O)C1
Output: 36.6 µM (active)

----------
# assayed target: UniProt P54829
# Sequence (P54829 whole entry): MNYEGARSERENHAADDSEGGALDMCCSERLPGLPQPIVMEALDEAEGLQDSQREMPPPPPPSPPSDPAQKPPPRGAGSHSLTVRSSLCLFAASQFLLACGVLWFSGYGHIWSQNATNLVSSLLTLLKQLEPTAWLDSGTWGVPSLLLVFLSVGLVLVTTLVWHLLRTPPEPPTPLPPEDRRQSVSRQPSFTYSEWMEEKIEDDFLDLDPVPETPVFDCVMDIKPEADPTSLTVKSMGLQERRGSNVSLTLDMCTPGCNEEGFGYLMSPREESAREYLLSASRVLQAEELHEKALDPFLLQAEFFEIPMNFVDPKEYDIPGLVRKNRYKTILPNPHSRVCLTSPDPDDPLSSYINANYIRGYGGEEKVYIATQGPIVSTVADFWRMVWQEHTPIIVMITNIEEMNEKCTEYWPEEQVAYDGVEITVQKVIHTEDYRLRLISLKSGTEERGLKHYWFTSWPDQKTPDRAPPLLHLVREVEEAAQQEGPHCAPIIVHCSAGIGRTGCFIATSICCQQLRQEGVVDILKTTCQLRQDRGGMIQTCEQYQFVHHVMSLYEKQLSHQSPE
# assay protocol: STEP phosphatase inhibitors, confirmation, biochemical, fluorescence intensity, uHTS hits (AID 602372)
# Type: functional
# experimental context: read-out: IC50_Mean
Active and inactive are the calls of the source.
Choose the fitting class; nothing outside y (active), n (inactive) is accepted.

compound: COc1ccc(OC)c(N2C(=O)[C@@H]3C(c4ccccc4Cl)=NO[C@@H]3C2=O)c1
category: n
--
compound: Cc1sc2nc(CSC(C)C(=O)Nc3ccc(Cl)cn3)nc(O)c2c1C (centres undefined)
category: y
--
compound: O=Cc1cn(-c2ccccc2)nc1-c1cc2cc(O)ccc2oc1=O
category: n

Moving on to the next compound.
Input: # lookup: test call for COc1cccc(Nc2nn3c(=O)c4ccccc4nc3s2)c1
Output: n

----------
# assayed target: Corticotropin-releasing factor receptor 2/Corticotropin-releasing factor-binding protein (Homo sapiens, UniProt P24387+Q13324)
# Sequence (Q13324 whole entry): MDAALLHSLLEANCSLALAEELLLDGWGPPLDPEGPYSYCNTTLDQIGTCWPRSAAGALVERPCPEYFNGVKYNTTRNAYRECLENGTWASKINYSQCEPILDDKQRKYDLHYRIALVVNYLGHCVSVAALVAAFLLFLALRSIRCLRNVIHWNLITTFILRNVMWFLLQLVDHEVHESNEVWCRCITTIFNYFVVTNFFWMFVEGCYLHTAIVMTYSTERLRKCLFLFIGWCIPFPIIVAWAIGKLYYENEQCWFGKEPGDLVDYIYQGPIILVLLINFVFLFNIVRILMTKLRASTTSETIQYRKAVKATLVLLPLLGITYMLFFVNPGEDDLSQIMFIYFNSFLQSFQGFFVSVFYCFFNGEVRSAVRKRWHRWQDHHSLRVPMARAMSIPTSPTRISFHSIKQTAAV
# Sequence (P24387 whole entry): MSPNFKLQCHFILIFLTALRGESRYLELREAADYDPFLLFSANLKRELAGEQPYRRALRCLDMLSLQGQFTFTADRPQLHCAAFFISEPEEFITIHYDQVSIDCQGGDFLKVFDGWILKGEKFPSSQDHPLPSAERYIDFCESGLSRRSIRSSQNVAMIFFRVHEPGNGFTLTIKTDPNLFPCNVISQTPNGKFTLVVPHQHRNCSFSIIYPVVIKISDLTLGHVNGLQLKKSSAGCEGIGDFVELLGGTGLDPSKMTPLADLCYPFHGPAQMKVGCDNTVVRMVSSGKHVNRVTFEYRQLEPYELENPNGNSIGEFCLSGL
# assay protocol: Dose Response confirmation of uHTS hits for small molecule antagonists of the CRF-binding protein and CRF-R2 receptor complex.
# Assay type: functional
# experimental context: read-out: IC50_Mean
Activity calls are given as the source filed them.
Choose the fitting class; nothing outside active, inactive is accepted.

A selection of reference data follows.
molecule: O=C(COc1cccc(Cl)c1)Nc1ccc(N2CCOCC2)cc1
category: inactive
--
molecule: O=C(CCN1CCCC1=O)NC1CCCc2c1cnn2-c1ccccc1F (stereo unspecified)
category: inactive
--
molecule: CCOC(=O)C(C)(C)N(Cc1ccc(C)cc1)S(=O)(=O)c1ccc(Cl)c([N+](=O)[O-])c1
category: inactive
--
molecule: CCOc1cc2[nH]c(=O)n(Cc3ccccc3)c(=O)c2cc1OCC
category: inactive
--
molecule: COc1cc2c(cc1OC)-c1cc(Nc3ccc(C(=O)O)cc3)nc(=O)n1CC2
category: inactive

Input: # lookup: test call for CC12CC3CC(C)(C1)CC(C(=O)NNC(=O)c1ccncc1)(C3)C2
Output: inactive

Input: # lookup: test call for COC(=O)c1ccc(Sc2ccc(Cl)cc2)c(N)c1
Output: active

----------
# AC50 measurements, system: Cytochrome P450 2D6 (Homo sapiens);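 note: CYP2D6 member of a cytochrome P450 panel assay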
# Sequence (P10635 whole entry): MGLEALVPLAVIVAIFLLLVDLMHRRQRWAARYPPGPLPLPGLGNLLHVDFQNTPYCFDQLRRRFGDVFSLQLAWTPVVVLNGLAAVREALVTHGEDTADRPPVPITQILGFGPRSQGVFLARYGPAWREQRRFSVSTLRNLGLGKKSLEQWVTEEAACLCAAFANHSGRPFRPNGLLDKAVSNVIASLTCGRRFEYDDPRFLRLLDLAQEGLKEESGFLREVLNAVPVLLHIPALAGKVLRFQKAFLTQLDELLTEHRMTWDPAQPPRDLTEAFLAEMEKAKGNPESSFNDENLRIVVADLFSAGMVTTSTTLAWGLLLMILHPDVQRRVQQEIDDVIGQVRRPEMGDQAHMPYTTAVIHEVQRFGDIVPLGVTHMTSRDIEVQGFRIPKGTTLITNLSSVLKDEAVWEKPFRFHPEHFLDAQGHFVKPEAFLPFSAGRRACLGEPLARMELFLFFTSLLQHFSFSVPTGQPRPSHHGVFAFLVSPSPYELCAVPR

Some solved cases for reference:
compound: Cn1ccnc1SCC(=O)Nc1sccc1C#N
AC50: 25.1 µM (inconclusive)
--
compound: Cc1cccc(NC(=O)N(Cc2nc(O)c3ccccc3n2)C2CCCC2)c1
AC50: 39.8 µM (inconclusive)
--
compound: COc1ccccc1-c1ccc2ncnc(NCCN3CCOCC3)c2c1
AC50: 39.8 µM (inconclusive)
--
compound: CCOC(=O)c1ccc(NC(=O)Nc2ccc3c4c(cccc24)C(=O)N3CC)cc1
AC50: 17.8 µM (inconclusive)
--
compound: CCc1nc(SCC(=O)N2CCCc3ccccc32)c2oc3ccccc3c2n1
AC50: 20 µM (inconclusive)

Input: Provide measured AC50 on Cytochrome P450 2D6 (Homo sapiens) for Nc1nc(-c2ccccc2)c(-c2ccccc2)s1 please.
Output: 15.8 µM (inconclusive)

Input: Provide measured AC50 on Cytochrome P450 2D6 (Homo sapiens) for CS(=O)(=O)Nc1cccc(-c2ccc3ncnc(Nc4ccccc4)c3c2)c1 please.
Output: 25.1 µM (inconclusive)

Input: Provide measured AC50 on Cytochrome P450 2D6 (Homo sapiens) for O=C(NCCCN1CCOCC1)C1COc2ccccc2O1 (stereo unspecified) please.
Output: 7.94 µM (inconclusive)

Input: Provide measured AC50 on Cytochrome P450 2D6 (Homo sapiens) for Clc1cccc(N/N=C/c2ccc(N3CCOCC3)cc2)c1 please.
Output: 7.08 µM (inconclusive)

Input: Provide measured AC50 on Cytochrome P450 2D6 (Homo sapiens) for O=C(NCCN1CCN(Cc2ccccc2)CC1)C1CC(=O)N(C2CCCC2)C1 (stereo unspecified) please.
Output: 14.1 µM (inconclusive)

Input: Provide measured AC50 on Cytochrome P450 2D6 (Homo sapiens) for CN1CC[C@@]2(CCCN(C(=O)c3csnn3)C2)C1 please.
Output: 39.8 µM (inconclusive)
